Assay: Acute toxicity in zebrafish embryo preincubated with compound for 24 hrs and measured after 96 hrs post fertilization
Design: species or system Danio rerio
Conditions: in vivo
Measurement kind: LC50 at 96 h (µg/mL)
Express your answer in µg/mL, writing the number without its unit.

Query :: Which LC50 at 96 h is reported for this compound? CC1(C)CCC[C@]2(C)[C@H]3CC[C@](C)(CC(=O)NC(=N)N)O[C@]3(C)CC[C@@H]12
Result :: 6

* * *

Assay: Acute toxicity in zebrafish embryo assessed as mortality rate at 4 microg/ml preincubated with compound for 24 hrs and measured after 24 hrs post fertilization
Design: species or system Danio rerio
Settings: in vivo, at 4 µg/mL
Measurement kind: mortality at 24 h, 4 microg/ml (%)
Express your answer in %, writing the number without its unit.

Query :: Which mortality at 24 h, 4 microg/ml is reported for this compound? CC1(C)CCC[C@]2(C)[C@H]3CC[C@](C)(CC(=O)NC(=N)N)O[C@]3(C)CC[C@@H]12
Result :: 0

* * *

Assay: Acute toxicity in zebrafish embryo assessed as mortality rate at 8 microg/ml preincubated with compound for 24 hrs and measured after 96 hrs post fertilization
Set-up: species or system Danio rerio
Details: in vivo, at 8 µg/mL
Measurement kind: mortality at 96 h, 8 microg/ml (%)
Express your answer in %, writing the number without its unit.

Query :: Which mortality at 96 h, 8 microg/ml is reported for this compound? CC1(C)CCC[C@]2(C)[C@H]3CC[C@](C)(CC(=O)NC(=N)N)O[C@]3(C)CC[C@@H]12
Result :: 95

* * *

Assay: Acute toxicity in zebrafish embryo preincubated with compound for 24 hrs and measured after 48 to 72 hrs post fertilization
Design: species or system Danio rerio
Conditions: in vivo
Measurement kind: LC50 at 24 h (µg/mL)
Express your answer in µg/mL, writing the number without its unit.

Query :: Which LC50 at 24 h is reported for this compound? CC1(C)CCC[C@]2(C)[C@H]3CC[C@](C)(CC(=O)NC(=N)N)O[C@]3(C)CC[C@@H]12
Result :: 8.1

* * *

Assay: Acute toxicity in zebrafish embryo assessed as mortality rate at 2 microg/ml preincubated with compound for 24 hrs and measured after 96 hrs post fertilization
Parameters: species or system Danio rerio
Settings: in vivo, at 2 µg/mL
Measurement kind: mortality at 96 h, 2 microg/ml
Answers without a unit are incomplete; give the number and then its unit.

Query :: Which mortality at 96 h, 2 microg/ml is reported for this compound? CC1(C)CCC[C@]2(C)[C@H]3CC[C@](C)(CC(=O)NC(=N)N)O[C@]3(C)CC[C@@H]12
Result :: 0%

* * *

# MIC per entry
Test system: Candida albicans
Assay: Antifungal activity against Candida albicans ATCC 10231 assessed as reduction in fungal growth incubated for 48 hrs by CLSI based analysis
Type: functional
Details: read-out: MIC100
Express your answer in µg/mL, writing the number without its unit.

Query :: Which MIC is reported for this compound? CC1(C)CCC[C@]2(C)[C@H]3CC[C@](C)(CC(=O)NC(=N)N)O[C@]3(C)CC[C@@H]12
Result :: 16

Query :: Which MIC is reported for this compound? CC1(C)CCC[C@]2(C)[C@H]3CC[C@@](C)(CC(=O)NC(=N)N)O[C@]3(C)CC[C@@H]12
Result :: 16

Query :: Which MIC is reported for this compound? C[C@@H]1[C@H](O)[C@@H](C)/C=C/C=C/C=C/C=C/C=C/C=C/C=C/[C@H](O[C@@H]2O[C@H](C)[C@@H](O)[C@H](N)[C@@H]2O)C[C@@H]2O[C@](O)(C[C@@H](O)C[C@@H](O)[C@H](O)CC[C@@H](O)C[C@@H](O)CC(=O)O[C@H]1C)C[C@H](O)[C@H]2C(=O)O [AMPHOTERICIN B]
Result :: 4

* * *

Assay: Acute toxicity in zebrafish embryo assessed as mortality rate at 0.7 microg/ml preincubated with compound for 24 hrs and measured after 96 hrs post fertilization
Design: species or system Danio rerio
Details: in vivo, at 0.7 µg/mL
Measurement kind: mortality at 96 h, 0.7 microg/ml (%)
Express your answer in %, writing the number without its unit.

Query :: Which mortality at 96 h, 0.7 microg/ml is reported for this compound? CC1(C)CCC[C@]2(C)[C@H]3CC[C@](C)(CC(=O)NC(=N)N)O[C@]3(C)CC[C@@H]12
Result :: 0

* * *

Test: Acute toxicity in zebrafish embryo preincubated with compound for 24 hrs and measured after 48 to 96 hrs post fertilization
Design: species or system Danio rerio
Details: in vivo
Measurement kind: LC50 (µg/mL)
Express your answer in µg/mL, writing the number without its unit.

Query :: Which LC50 is reported for this compound? CC1(C)CCC[C@]2(C)[C@H]3CC[C@@](C)(CC(=O)NC(=N)N)O[C@]3(C)CC[C@@H]12
Result :: 11.5

* * *

Tested on: Staphylococcus aureus
Experiment: Antimicrobial activity against Staphylococcus aureus ATCC 29213 assessed as inhibition of microbial growth incubated for 24 hrs by broth-microdilution assay
Assay type: functional
Conditions: Staphylococcus aureus, ATCC 29213, read-out: MIC100
Measurement kind: MIC (µg/mL)
Express your answer in µg/mL, writing the number without its unit.

Worked examples, 2 compounds total:
>>> observed_result("CC1(C)CCC[C@]2(C)[C@H]3CC[C@@](C)(CC(=O)NC(=N)N)O[C@]3(C)CC[C@@H]12")
8
>>> observed_result("Cc1onc(-c2ccccc2)c1C(=O)N[C@@H]1C(=O)N2[C@@H]1SC(C)(C)[C@@H]2C(=O)O")
2

# context switch: different compound, same MIC
Query :: Which MIC is reported for this compound? CC1(C)CCC[C@]2(C)[C@H]3CC[C@](C)(CC(=O)NC(=N)N)O[C@]3(C)CC[C@@H]12
Result :: 8

* * *

Assay: Acute toxicity in zebrafish embryo assessed as mortality rate at 4 microg/ml preincubated with compound for 24 hrs and measured after 96 hrs post fertilization
Parameters: species or system Danio rerio
Settings: in vivo, at 4 µg/mL
Measurement kind: mortality at 96 h, 4 microg/ml

Query :: Which mortality at 96 h, 4 microg/ml is reported for this compound? CC1(C)CCC[C@]2(C)[C@H]3CC[C@](C)(CC(=O)NC(=N)N)O[C@]3(C)CC[C@@H]12
Result :: 5%

* * *

Assay: Acute toxicity in zebrafish embryo assessed as mortality rate at 16 microg/ml preincubated with compound for 24 hrs and measured after 48 to 72 hrs post fertilization
Design: species or system Danio rerio
Conditions: in vivo, at 16 µg/mL
Measurement kind: mortality at 16 microg/ml (%)
Express your answer in %, writing the number without its unit.

>>> observed_result("CC1(C)CCC[C@]2(C)[C@H]3CC[C@](C)(CC(=O)NC(=N)N)O[C@]3(C)CC[C@@H]12")
100

# context switch: different compound, same mortality at 16 microg/ml
Query :: Which mortality at 16 microg/ml is reported for this compound? CC1(C)CCC[C@]2(C)[C@H]3CC[C@@](C)(CC(=O)NC(=N)N)O[C@]3(C)CC[C@@H]12
Result :: 100

* * *

Assay: Acute toxicity in zebrafish embryo assessed as mortality rate at 4 microg/ml preincubated with compound for 24 hrs and measured after 48 to 72 hrs post fertilization
Set-up: species or system Danio rerio
Details: in vivo, at 4 µg/mL
# mortality at 4 microg/ml per entry
Answers without a unit are incomplete; give the number and then its unit.

>>> observed_result("CC1(C)CCC[C@]2(C)[C@H]3CC[C@](C)(CC(=O)NC(=N)N)O[C@]3(C)CC[C@@H]12")
"0%"

# context switch: different compound, same mortality at 4 microg/ml
Query :: Which mortality at 4 microg/ml is reported for this compound? CC1(C)CCC[C@]2(C)[C@H]3CC[C@@](C)(CC(=O)NC(=N)N)O[C@]3(C)CC[C@@H]12
Result :: 0%

* * *

Test: Acute toxicity in zebrafish embryo assessed as mortality rate at 32 microg/ml preincubated with compound for 24 hrs and measured after 48 to 72 hrs post fertilization
Set-up: species or system Danio rerio
Conditions: in vivo, at 32 µg/mL
Measurement kind: mortality at 24 h, 32 microg/ml

Query :: Which mortality at 24 h, 32 microg/ml is reported for this compound? CC1(C)CCC[C@]2(C)[C@H]3CC[C@@](C)(CC(=O)NC(=N)N)O[C@]3(C)CC[C@@H]12
Result :: 100%

* * *

# MIC per entry
Test system: Candida albicans
Experiment: Antifungal activity against Candida albicans ATCC 10231 assessed as reduction in fungal growth incubated for 48 hrs by CLSI based analysis
Assay type: functional
Conditions: read-out: MIC100

Worked examples, 2 molecules total:
>>> observed_result("CC1(C)CCC[C@]2(C)[C@H]3CC[C@@](C)(CC(=O)O)O[C@]3(C)CC[C@@H]12")
"> 128 µg/mL"
>>> observed_result("CC1(C)CCC[C@]2(C)[C@H]3CC[C@](C)(CC(=O)O)O[C@]3(C)CC[C@@H]12")
"> 128 µg/mL"

# context switch: different molecule, same MIC
Query :: Which MIC is reported for this molecule? C[C@@H](c1ncncc1F)[C@](O)(Cn1cncn1)c1ccc(F)cc1F
Result :: ≥ 1 µg/mL

Provenance of the data: ChEMBL document CHEMBL5537143
